- assay_system: Cytochrome P450 1A2 (Homo sapiens)
- Sequence (P05177 whole entry): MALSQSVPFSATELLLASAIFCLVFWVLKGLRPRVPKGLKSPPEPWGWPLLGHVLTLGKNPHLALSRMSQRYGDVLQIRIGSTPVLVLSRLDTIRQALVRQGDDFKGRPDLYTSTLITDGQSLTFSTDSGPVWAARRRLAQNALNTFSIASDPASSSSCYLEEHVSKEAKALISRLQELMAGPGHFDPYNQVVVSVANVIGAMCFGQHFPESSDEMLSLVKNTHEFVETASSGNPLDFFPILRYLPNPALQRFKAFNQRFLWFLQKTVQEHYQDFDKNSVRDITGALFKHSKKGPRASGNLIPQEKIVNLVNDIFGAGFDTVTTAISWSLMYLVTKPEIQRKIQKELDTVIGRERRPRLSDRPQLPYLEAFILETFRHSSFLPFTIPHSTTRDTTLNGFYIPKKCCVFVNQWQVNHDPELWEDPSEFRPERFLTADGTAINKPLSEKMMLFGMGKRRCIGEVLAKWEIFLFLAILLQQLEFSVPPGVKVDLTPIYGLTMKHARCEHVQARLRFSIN
- assay_overview: Irreversible inhibition of CYP1A2 (unknown origin)-mediated demethylation of resorufin methyl ether after 5 mins by spectrofluorimetric analysis
quantity_name: Ki (nM)

{"columns": ["mol_smiles", "unit_name", "assay_value"],
 "data": [
  ["C#CCOc1cccc(-c2cc(=O)c3c(O)cccc3o2)c1", "nM", 71]
]}

###

- Test system: CYP1B1 over CYP1A2
- assay_overview: Selectivity ratio for CYP1B1 (unknown origin) over CYP1A2 (unknown origin)
- Format: ADME
- protocol_conditions: human

{"columns": ["mol_smiles", "selectivity ratio"],
 "data": [
  ["C#CCOc1ccc(-c2cc(=O)c3c(O)cccc3o2)cc1", "> 250"]
]}
